// reported % Survivors vs. Sal. Cholarasuis, SC for each item listed
Test system: Salmonella cholerasuis
assay-name: In vivo protection of mice against a lethal challenge of Salmonella cholerasuis
condition-label: at 25 mg./Kg., SC, multiple dosing
State just the number; it will be interpreted in %.

Illustrative cases are given below, each with its answer.
- compound-structure: "Cc1ccc(S(=O)(=O)NN=Cc2c[n+]([O-])c3ccccc3n2)cc1"
  assay-endpoint: "% Survivors vs. Sal. Cholarasuis, SC"
  unit-descriptor: "%"
  reading: 100
- compound-structure: "CS(=O)(=O)NN=Cc1c[n+]([O-])c2ccccc2[n+]1[O-]"
  assay-endpoint: "% Survivors vs. Sal. Cholarasuis, SC"
  unit-descriptor: "%"
  reading: 60
- compound-structure: "Cc1ccc(S(=O)(=O)NN=Cc2c[n+]([O-])c3ccccc3[n+]2[O-])cc1"
  assay-endpoint: "% Survivors vs. Sal. Cholarasuis, SC"
  unit-descriptor: "%"
  reading: 100

Pending compound:
Problem: So what does the record say about % Survivors vs. Sal. Cholarasuis, SC for O=S(=O)(NN=Cc1c[n+]([O-])c2ccccc2[n+]1[O-])c1ccc(F)cc1 ?
Result: 30
